System: 786-0 renal
METHOD_NOTES: NCI-60 one-dose screen, 48 h (100 = growth as untreated, 0 = no growth, -100 = all killed)
MEASUREMENT_SETUP: 10 µM unless noted
The panel holds about 83,000 compounds, 20% with a hit somewhere; the sample as a whole holds those more often.
Reported values of growth for individual entries
# output: bare number, implied unit %

# count of solved cases: 5
Cn1c2ccc(Cl)cc2c2nn(C(=O)c3ccccc3)c(=O)nc21 :: 113
O=[N+]([O-])c1cc2c(cc1Br)-c1ccccc1C2 :: 88.4
COc1ccc(-c2csc3c2-n2cccc2C3=O)cc1O :: 1.66
Clc1ccccc1Nc1ccc2nnc(-c3ccncc3)n2n1 :: 75.7
CC(C)(C)[Si](C)(C)OC1[C@@H](O[Si](C)(C)C(C)(C)C)[C@@H](CNC(=O)NC(=O)C(F)(F)F)O[C@H]1n1cnc2c(NC(=O)Nc3ccccc3)ncnc21 (stereo not given in full) :: 83.1

Simply: `COCCOC1=C(Cl)C(=O)c2ccccc2C1=O` , 786-0 renal, growth = 81.8

Simply: `COc1cc(C(F)(F)F)ccc1-c1cc(-c2ccc(F)cc2)n[nH]1` , 786-0 renal, growth = 99.9

Simply: `FC(F)(F)Oc1ccc2c(c1)C[C@H]1C[C@@H](c3ccoc3)N2O1` , 786-0 renal, growth = 105

Simply: `O=C(NCc1ccco1)C1CCN(S(=O)(=O)c2ccc(Cl)cc2)CC1` , 786-0 renal, growth = 82.9

Simply: `N#C/C(=C\c1ccc[nH]1)c1cc2ccccc2[nH]1` , 786-0 renal, growth = 93.4

====

Tested on: ACHN renal
METHOD_NOTES: NCI-60 one-dose screen, 48 h (100 = growth as untreated, 0 = no growth, -100 = all killed)
MEASUREMENT_SETUP: 10 µM unless noted
This is part of a sample that, as a whole, favours compounds with a hit. Of some 83,000 tested, about 20% had one in any assay.
Would you please tag the item t when its growth is 70% or above, and f when it is below?

Solved entries:
COc1ccc(C(=O)C2=CC(=O)C(=O)C2)cc1OC :: t
O=C1CCC(N2C(=O)c3cccc(NCCOCCOCCNC(=O)c4cc5c(o4)C(=O)c4ccccc4C5=O)c3C2=O)C(=O)N1 (stereo unspecified) :: f
Cc1ccc(S(=O)(=O)N2CCc3ccc(O)c4c3C2CCc2ccccc2-4)cc1 (stereo unspecified) :: t
Cn1cc(C(=O)NCCC(=N)N)cc1NC(=O)CN=C(N)N :: t

Now examine the next entry.
# bool: growth of `Oc1ccccc1/C=N/Nc1nc2ccccc2s1` >= 70%
f

====

Reported values of growth for individual entries
Tested on: SF-295 CNS
METHOD_NOTES: NCI-60 one-dose screen, 48 h (100 = growth as untreated, 0 = no growth, -100 = all killed)
MEASUREMENT_SETUP: 10 µM unless noted
The panel holds about 83,000 compounds, 20% with a hit somewhere; the sample as a whole holds those more often.
# output: bare number, implied unit %

CCCCc1ccc(NC(=O)C(F)(F)F)cc1 :: 105
Nc1c(Br)cc(Br)cc1-c1n[nH]c(=O)[nH]c1=O :: 98
CC(C)(C)[Si](C)(C)OC1[C@@H](COC(=O)NC(=O)CCl)O[C@@H](n2cnc3c(N)ncnc32)[C@H]1O[Si](C)(C)C(C)(C)C (stereo not given in full) :: 45.7
O=c1oc2ccccc2cc1-c1csc(N/N=C/c2cc3ccccc3nc2Cl)n1 :: 97.8
CN(C)C(=S)SCN1C(=O)c2ccc([N+](=O)[O-])cc2S1(=O)=O :: 101

Reported growth of `O=C(O)CCN1CCN(c2cccc(Cl)c2)CC1` : 87.4

Reported growth of `C[C@@H](Oc1cc(-c2cnn(C3CC4(CCNCC4)C3)c2)cnc1N)c1c(F)ccc(Cl)c1Cl` : -10.2

Reported growth of `Cc1nn(-c2ccccc2)c2nc3nc4c(c(N)c3c(-c3ccc(Cl)cc3)c12)CCCC4` : 96

Reported growth of `NC(=S)N/N=C1\c2ccccc2-c2c(F)c(F)c(F)c(F)c21` : 99.5

Reported growth of `O=C1/C(=C/c2ccc(F)cc2)CN(Cc2cn(CCNc3ccnc4cc(Cl)ccc34)nn2)C/C1=C\c1ccc(F)cc1` : -55.5

====

Test system: TK-10 renal
METHOD_NOTES: NCI-60 one-dose screen, 48 h (100 = growth as untreated, 0 = no growth, -100 = all killed)
MEASUREMENT_SETUP: 10 µM unless noted
Compounds without any hit were thinned out: in the full panel of roughly 83,000, 20% have a hit. Calls of active or inactive are those of the source. How the source made its calls: active means growth percent below 10; inactive means the rest.
MEASURED_ENDPOINT: growth

Reported growth of O=C1OCC2=C1C(c1ccc3c(c1)OCO3)CC(=O)N2c1cccc(Cl)c1 (stereo unspecified) : 99.6% (inactive)

Reported growth of `O=C(Nc1ccc(F)cc1)c1ccc(C(=O)Nc2ccc(F)cc2)cc1` : 108% (inactive)

Reported growth of `Brc1ccccc1Nc1ccc2nnc(-c3ccncc3)n2n1` : 114% (inactive)

Reported growth of `Nc1cc(Br)c(-c2nnc(CCC(=O)c3nc4ccccc4[nH]3)o2)c(Br)c1` : 101% (inactive)

Reported growth of `Nc1nc2c(s1)CCc1c-2c(Br)n(Cc2ccccc2)c1Br` : 88.1% (inactive)

Reported growth of `O=C(CCc1nnc2sc(-c3ccccc3)nn12)c1nc2ccccc2[nH]1` : 108% (inactive)

====

System: SK-MEL-28 melanoma
METHOD_NOTES: NCI-60 one-dose screen, 48 h
MEASUREMENT_SETUP: 10 µM unless noted
Experimental: Growth inhibition of the SK-MEL-28 human tumor cell line is measured as a screen for anti-cancer activity. Cells are grown in 96 well plates and exposed to the test compound for 48 hours. Compounds are tested at a single concentration, which is 10^-5 M for most compounds. The reported endpoint is percent growth (GI% or GIPRCNT), where numbers from 0 - 100% represent growth inhibition, and numbers from -100% - 0 represent cell death. For example, a value of 40 represents 60% growth inhibition. […]
This is part of a sample that, as a whole, favours compounds with a hit. Of some 83,000 tested, about 20% had one in any assay. Calls of active or inactive are those of the source. How the source made its calls: active means growth percent below 10; inactive means the rest.
Field 'call' accepts y (active), n (inactive)

Solved entries:
Cc1nc2cc(Nc3nc(N4CCCCC4)nc(N4CCOCC4)n3)ccc2n1Cc1ccccc1 :: n
Cc1ccc2nc(NC(=O)CSC(=S)N3CCN(Cc4ccccc4)CC3)sc2c1 :: y
CN1CCN(C(=O)OCCOCCOC(=O)N2CCN(C)CC2)CC1 :: n
CCN(C(=O)c1ccc2c3c(cccc13)C=C2)c1ccccc1 :: n
C=CC(=O)N1CC2(CCC(n3nc(-c4ccc(Oc5ccccc5)cc4)c4c(N)ncnc43)CC2)C1 :: y
Oc1ccc2ccccc2c1C1NN=C(c2ccccc2)S1 (stereo not given) :: n
COc1ccc(Sc2ccc3[nH]c(=O)nc(N)c3c2)cc1 :: n
COC(=O)c1c2c(c(C)[n+]([O-])c1C)C(=O)C=C(NCc1ccc(F)cc1)C2=O :: y
Cn1c(=O)c2c(-c3ccccc3F)n(-c3ccc4c(c3)OCO4)cc2n(C)c1=O :: n

Now examine the next entry.
Tell me the recorded outcome of this test for `Cc1cc(O)cc2c1[C@H]1CC[C@]3(C)[C@@H](O)CC[C@H]3[C@@H]1C=C2` .
n

====

Test system: CCRF-CEM leukemia
METHOD_NOTES: NCI-60 one-dose screen, 48 h (100 = growth as untreated, 0 = no growth, -100 = all killed)
MEASUREMENT_SETUP: 10 µM unless noted
The panel holds about 83,000 compounds, 20% with a hit somewhere; the sample as a whole holds those more often.
In this scheme, each record receives a class according to its growth; the ranges are range A: < 50%; range B: ≥ 50% and < 90%; range C: ≥ 90%

N#C/C(=C\c1ccc[nH]1)c1cc2ccccc2[nH]1 :: range B

Record `O=C(N/N=C(\CS(=O)(=O)c1ccccc1)c1cc2cc(Br)ccc2oc1=O)c1ccccc1` — which class?
range C

====

Tested on: BT-549 breast
METHOD_NOTES: NCI-60 one-dose screen, 48 h (100 = growth as untreated, 0 = no growth, -100 = all killed)
MEASUREMENT_SETUP: 10 µM unless noted
Compounds without any hit were thinned out: in the full panel of roughly 83,000, 20% have a hit.
MEASURED_ENDPOINT: growth (%)
# output: bare number, implied unit %

CCOC(=O)c1[nH]c2cc(Cl)ccc2c1[C@@H](C(=O)NC(C)(C)C)N(CC)C(=O)CCCCC#Cc1cccc2c1CN(C1CCC(=O)NC1=O)C2=O (stereo not given in full) :: 3.98
CN1CCN(c2ccc3nc(-c4ccc5nc(-c6ccc(C(F)(F)F)cc6)[nH]c5c4)[nH]c3c2)CC1 :: 84.6

Reported growth of `COc1cc(NC(=O)COc2ccccc2)c(C(N)=O)cc1OC` : 59.5

Reported growth of `Cc1ccc(NS(=O)(=O)c2ccc(-c3cnc(C4CC4)o3)cc2)cc1` : 40.4

Reported growth of `Nc1cc(Br)c(-c2nnc(CCC(=O)c3nc4ccccc4[nH]3)o2)c(Br)c1` : 40.6
